SF-539 CNS: recorded GI50 for assorted molecules

Worked examples, 6 molecules total:
[
  {
    "Molecule": "[Cl][Sn]([c]1ccccc1)[c]1ccccc1",
    "GI50": "9.43 µM"
  },
  {
    "Molecule": "O=C1NC(=O)C(c2ccccc2Cl)=C1Nc1cccc(O)c1",
    "GI50": "8.93 µM"
  },
  {
    "Molecule": "CCOC(=O)/C(C1=CC(=O)C(=O)c2ccccc21)=C(/C)NCc1ccccc1",
    "GI50": "1.06 µM"
  },
  {
    "Molecule": "O=C(Nc1ccc(Br)cc1)c1cc(Br)cc(Br)c1O",
    "GI50": "2.89 µM"
  },
  {
    "Molecule": "CCN(CC)C(=S)SSC1CCCCC1",
    "GI50": "15.3 µM"
  },
  {
    "Molecule": "C=C(CNCCO)[C@@H]1CC[C@]2(CO)CC[C@]3(C)[C@H](CC[C@@H]4[C@@]5(C)CCC(NCCc6ccc(O)cc6)C(C)(C)[C@@H]5CC[C@]43C)[C@@H]12 (stereo not given in full)",
    "GI50": "1.52 µM"
  }
]

Please state, for each entry, its recorded GI50.
1. OCC1OC(N2C=C(c3nc4ccccc4s3)C3C=CC=CC32)C(O)C1O (stereo not given)
2. Cc1ccc(-c2cc3nc(-c4ccccc4)nc(C(Cl)Cl)n3n2)cc1
3. O=C(/C=C/c1ccc([N+](=O)[O-])o1)NNC(=O)c1cc2ccccc2cc1O
4. ClCCn1cnc2c(SCc3ccccc3)ncnc21

1: 8.08 µM; 2: 0.911 µM; 3: 2.06 µM; 4: 8.77 µM
